Tested on: UACC-257 melanoma
Experiment: NCI tumour cell line growth inhibition, 48 h
We begin with a simple list: items and their reported TGI.

Recorded TGI, per entry:
compound	TGI
O=C(Nc1cc(Cl)c(Cl)cc1Cl)C(=O)C1C=CCS1(=O)=O (stereo not drawn)	> 100 µM
CCCCOC(=O)NC(=O)c1cn(CCCOC(=O)CCCCCCCCC(=O)OCCCn2cc(C(=O)NC(=O)OCCCC)c(=O)[nH]c2=O)c(=O)[nH]c1=O	> 100 µM
COc1cc(OC)cc(C2CC(=O)Nc3c2c(C)nn3-c2nc3ccccc3[nH]2)c1 (stereo not drawn)	7.32 µM
O=[N+]([O-])c1cccc(C2N3CCCCC3[C@@H]3c4[nH]c5ccccc5c4CCN23)c1 (stereo partly drawn)	27 µM

Exam item: Fill in the blank: the reported TGI of CCNC(=O)CCN(C(=O)O)S(=O)(=O)c1ccc(NC(=O)c2ccccc2)cc1 is ____.
Marked response: > 100 µM

Exam item: Fill in the blank: the reported TGI of CC(=O)Oc1cc2c(n(C)c1=O)-c1ccccc1C2 is ____.
Marked response: > 100 µM

Exam item: Fill in the blank: the reported TGI of O=c1ccn(C2OC(CO)C(O)C2F)c(=O)[nH]1 (stereo not drawn) is ____.
Marked response: > 1000 µM

Exam item: Fill in the blank: the reported TGI of COc1cc(S(=O)(=O)Nc2nc(-c3ccc(N4C(=O)C(CC(=O)O)SC4c4ccccc4O)cc3)cs2)ccc1Cl (stereo not drawn) is ____.
Marked response: > 100 µM

Exam item: Fill in the blank: the reported TGI of CN1CCC2(CC1)SC[C@H]1C(=O)N(c3ccc(Cl)cc3)C(=O)N12 is ____.
Marked response: > 100 µM

====

We begin with a simple list: items and their reported TGI.
System: SF-539 CNS
Assay: NCI tumour cell line growth inhibition, 48 h

compound	TGI
CC1=C(C(=O)Nc2ccccc2C)C(c2ccc(Cl)c(Cl)c2)C(C(=O)Nc2ccccc2C)=C(C)N1	49.6 µM

Exam item: Fill in the blank: the reported TGI of Cc1nc2sc(C(=O)Nc3cccc(Cl)c3C)c(N)c2cc1C(=O)/C=C/c1ccccc1 is ____.
Marked response: 1.43 µM

Exam item: Fill in the blank: the reported TGI of CCC1(CC)C(=O)OC(=O)C1(CC)CC is ____.
Marked response: > 100 µM

Exam item: Fill in the blank: the reported TGI of CCOC(=O)NC(=O)c1cn(CC(=O)NCC(=O)NCC(=O)NCCCN2CCN(CCCNC(=O)CNC(=O)CNC(=O)Cn3cc(C(=O)NC(=O)OCC)c(=O)[nH]c3=O)CC2)c(=O)[nH]c1=O is ____.
Marked response: > 100 µM

====

System: A549 NSCLC
Assay: NCI tumour cell line growth inhibition, 48 h
value_type: TGI

Recorded TGI, per entry:
compound	TGI
O=C1Nc2ccc(C(=O)c3ccco3)cc2/C1=C/c1cc(Cl)c(O)c(Cl)c1	> 24 µM
C=C1C(=O)O[C@H]2[C@H]1CC/C(CNC(=O)c1cc3cc(OC)ccc3[nH]1)=C\CC[C@@]1(C)O[C@@H]21	14.4 µM
CC12OC(c3ccccc3)=CC(c3ccc(Cl)cc3)=C1C(c1ccccc1)=CC2=O (centres undefined)	> 100 µM

Exam item: Fill in the blank: the reported TGI of CC(C)(C)[Si](C)(C)O[C@@H](C(=O)OC1C=CCCC1)[C@@H](NC(=O)c1ccccc1)c1ccccc1 (some centres undefined) is ____.
Marked response: 94.9 µM

Exam item: Fill in the blank: the reported TGI of CC1=C(C(=O)Nc2ccccc2C)C(c2ccc(Cl)c(Cl)c2)C(C(=O)Nc2ccccc2C)=C(C)N1 is ____.
Marked response: > 100 µM

Exam item: Fill in the blank: the reported TGI of O=C1NC(=O)C(Cc2ccccc2)(c2cccnc2)N1 (centres undefined) is ____.
Marked response: > 100 µM

Exam item: Fill in the blank: the reported TGI of C/C1=C/C(C)CC(C)OC(=O)C(C)NC(=O)C(Cc2ccc(O)c(I)c2)N(C)C(=O)CNC(=O)C(C)C1 (centres undefined) is ____.
Marked response: > 100 µM

Exam item: Fill in the blank: the reported TGI of COc1ccc2nc3c([N+](=O)[O-])ccc4c3c(c2c1)N=CN4CCCN(C)C is ____.
Marked response: 13.4 µM

Exam item: Fill in the blank: the reported TGI of Cc1csc2nc3c(cnn3C)c(=S)n12 is ____.
Marked response: > 100 µM

====

Test system: U251 CNS
Assay: NCI tumour cell line growth inhibition, 48 h
value_type: TGI

molecule	value_type	reported_value
COc1cc(Nc2nccc(Nc3ccc4c(C)[nH]nc4c3)n2)cc(OC)c1OC	TGI	17.8 µM
CC(=O)C(I(OS(=O)(=O)c1ccc(C)cc1)c1ccccc1)=P(c1ccccc1)(c1ccccc1)c1ccccc1	TGI	98.5 µM
CC(=O)CC(=O)Nc1ccc2ccccc2c1	TGI	> 100 µM
CCOC(=O)C(Cc1c[nH]c2ccc(N)cc12)(NC(C)=O)C(=O)OCC	TGI	> 1000 µM
CN1C2CCC1CC(CCOC(c1ccc(F)cc1)c1ccc(F)cc1)C2 (stereo not drawn)	TGI	28.1 µM

Exam item: Fill in the blank: the reported TGI of Nc1c(C(=O)c2ccc(Cl)cc2)sc(Nc2ccccc2)c1-c1nc2ccccc2s1 is ____.
Marked response: 36.3 µM

Exam item: Fill in the blank: the reported TGI of O=C1NC(=O)C(Cc2ccccc2)(c2cccnc2)N1 (stereo not drawn) is ____.
Marked response: > 100 µM

Exam item: Fill in the blank: the reported TGI of CC(=O)O[C@@H]1CC[C@@]2(C)C(CC[C@H]3[C@@H]4CC[C@H]([C@H](C)CCc5nc6ccc(C)cc6[nH]5)[C@@]4(C)CC[C@@H]32)C1 (stereo partly drawn) is ____.
Marked response: > 100 µM

Exam item: Fill in the blank: the reported TGI of COC(=O)C1C(C(=O)OC)C2(OC)c3ccccc3-c3ccccc3C12 (stereo not drawn) is ____.
Marked response: > 100 µM

Exam item: Fill in the blank: the reported TGI of Cn1ccnc1CC(C)(O)c1ccccc1 (stereo not drawn) is ____.
Marked response: > 100 µM

Exam item: Fill in the blank: the reported TGI of CC(C)=CCCC(C)c1ccc(C)c2c1OCN(CC1CCNCC1)C2 (stereo not drawn) is ____.
Marked response: 7.61 µM

====

System: HCC-2998 colon
Assay: NCI tumour cell line growth inhibition, 48 h
We begin with a simple list: items and their reported log10 of TGI.
Could you please treat all values as log10 of TGI in µM?

Recorded log10 of TGI, per entry:
compound	reported_value
CC(C)c1ccc(C(=O)Nc2nc3ccc(O)cc3s2)cc1	0.26
COCC(N=CN1CCCc2ccccc2[C@@H]1CCCCl)C(C)(C)C (stereo partly drawn)	1.53
COC(=O)c1cc2c(cc1Cl)SC(N(N(C)C)S(=O)(=O)c1ccc(Br)s1)=NS2(=O)=O	1.61
CCN1CCN(C(=O)[C@]23CC[C@@H](C)[C@H](C)[C@@H]2C2=CC[C@@H]4[C@@]5(C)C/C(=C/c6ccncc6)C(=O)C(C)(C)[C@@H]5CC[C@@]4(C)[C@]2(C)CC3)CC1	0.48

Exam item: Fill in the blank: the reported log10 of TGI of O=C(O[C@H]1CN[C@H](C#Cc2cc3ncnc(Nc4ccc5c(ccn5Cc5cc(F)ccc5F)c4)c3s2)C1)N1CCOCC1 is ____.
Marked response: 0.87

Exam item: Fill in the blank: the reported log10 of TGI of COC(=O)C1=C(O)C(C(=O)OC)[C@]2(O)[C@H](C(=O)OC)[C@H]1C[C@@H](c1ccc(F)cc1)[C@H]2C(=O)OC (stereo partly drawn) is ____.
Marked response: 1.46

====

Tested on: NCI-H460 lung
Experiment: NCI tumour cell line growth inhibition, 48 h
We begin with a simple list: items and their reported TGI.

Recorded TGI, per entry:
molecule	reported_value
O=C1c2ccccc2C(=O)N1CCCSc1ccccc1	> 100 µM
CC(O)c1cccc(NCc2c3ccccc3c(=O)n3c2oc2ccccc23)c1 (centres undefined)	> 100 µM
Cc1nc2sc(C(=O)Nc3cccc(Cl)c3C)c(N)c2cc1C(=O)/C=C/c1ccccc1	1.74 µM
CCCCCCCCC[C@@H]1CC(=O)OCC2OC(O[C@H](CCCCCCCCC)CC(=O)OCC3OC(O[C@H](CCCCCCCCC)CC(=O)OCC4OC(O1)C(O)C(O)C4O)C(O)C(O)C3O)C(O)C(O)C2O (some centres undefined)	17.3 µM
C/C1=C/C(C)CC(C)OC(=O)C(C)NC(=O)C(Cc2ccc(O)c(I)c2)N(C)C(=O)CNC(=O)C(C)C1 (centres undefined)	> 59.7 µM
O=C1CC(=O)NC(=NN2C(=O)/C(=C/C(=O)c3ccco3)N=C2c2ccccc2)N1	> 100 µM

Exam item: Fill in the blank: the reported TGI of COc1cc(/C=C/C(=O)CC(=O)/C=C/c2cc(OC)c(OC)c(OC)c2)cc(OC)c1OC is ____.
Marked response: 18.4 µM

Exam item: Fill in the blank: the reported TGI of CCOC(=O)NNC(=O)C1CSC(c2ccccc2)N1C(C)=O (centres undefined) is ____.
Marked response: > 100 µM

Exam item: Fill in the blank: the reported TGI of O=c1ccn(C2OC(CO)C(O)C2F)c(=O)[nH]1 (centres undefined) is ____.
Marked response: > 1000 µM
